# System: Ca-Ski (Cervical Carcinoma)
# Test Method Notes: combination Emax (second highest fraction inhibited in the dose matrix, 72 h); higher = more inhibition; extreme values may be limits of the assay
Returns one of True or False; True when combination Emax is >= 0.6.

In plain terms: is recorded combination Emax at least 0.6 for Cn1cnc2c(F)c(Nc3ccc(Br)cc3Cl)c(C(=O)NOCCO)cc21 [Selumetinib] + C[C@@H]1COCCN1C2=NC(=NC(=C2)C3(CC3)[S@](=N)(=O)C)C4=C5C=CNC5=NC=C4 [AZD6738] (first compound max 10 µM, 7x7, partner max 10 µM) ?
True

Item CC(=O)c1c(C)c2cnc(Nc3ccc(N4CCNCC4)cn3)nc2n(C2CCCC2)c1=O [Palbociclib] + Cn1cnc2c(F)c(Nc3ccc(Br)cc3Cl)c(C(=O)NOCCO)cc21 [Selumetinib] (first compound max 10 µM, 7x7, partner max 10 µM) with combination Emax of 0.6 or above?
False

Quick check, combination Emax >= 0.6? CC(=O)Nc1cccc(-n2c(=O)n(C3CC3)c(=O)c3c(Nc4ccc(I)cc4F)n(C)c(=O)c(C)c32)c1 [Trametinib] + Cc1nc(-c2cn3c(n2)-c2ccc(-c4cnn(C(C)(C)C(N)=O)c4)cc2OCC3)n(C(C)C)n1 [Taselisib] (first compound max 1 µM, 7x7, partner max 10 µM)
True

In plain terms: is recorded combination Emax at least 0.6 for CC1(C)CCC(CN2CCN(c3ccc(C(=O)NS(=O)(=O)c4ccc(NCC5CCOCC5)c([N+](=O)[O-])c4)c(Oc4cnc5[nH]ccc5c4)c3)CC2)=C(c2ccc(Cl)cc2)C1 [Venetoclax] + Cc1cc2ncnn2cc1Nc1ncc2c(n1)n(C1CCOCC1)c(=O)n2C [AZD7648] (first compound max 1 µM, 7x7, partner max 10 µM) ?
False

Kindly determine if combination Emax recorded for C[C@@H]1COCCN1c1cc(C2([S@](C)(=N)=O)CC2)nc(-c2ccnc3[nH]ccc23)n1 [AZD6738] + C1CC(C1)(C(=O)[O-])C(=O)[O-].N.N.[Pt+2] [Carboplatin] (first compound max 10 µM, 7x7, partner max 10 µM) is above or exactly 0.6.
True
